Test: Half life in beagle dog plasma at 50 ug/ml at 37 degC at pH 7.4
Type: ADME, cell-free, Canis lupus familiaris
READOUT TYPE: half-life at 50 ug/ml (h)
Answers are plain numbers, in h.

Q: Which half-life at 50 ug/ml reading was recorded for the compound CCOC(=O)Cc1nn(Cc2nc(-c3ccc(C)cc3)cs2)c(=O)c2ccccc12 ?
Ans: 9.3

* * *

System: NCI-H2122
Assay: Growth inhibition of human NCI-H2122 cells incubated for 3 days
Format: functional, cell-based
Conditions: NCI-H2122, 72 h
READOUT TYPE: IC50 (µM)
Give bare numbers, in µM.

>  <STRUCTURE NOTATION>
Cc1ccc(-c2csc(Cn3nc(Cc4nccs4)c4ccccc4c3=O)n2)cc1

>  <ASSAYED SYSTEM>
NCI-H2122

>  <IC50 / µM>
26

$$$$

Please state, for each entry, its recorded IC50.
1. O=C(O)CSc1cc(NS(=O)(=O)c2cccs2)c2ccccc2c1O
2. CCOC(=O)Cc1nn(Cc2nc(-c3ccc(C)cc3)cs2)c(=O)c2ccccc12

Ans:
1: 34; 2: 27

* * *

Would you mind telling me the reported Kd of each entry?
Biological target: Pleckstrin (Homo sapiens)
Sequence (P08567 whole entry): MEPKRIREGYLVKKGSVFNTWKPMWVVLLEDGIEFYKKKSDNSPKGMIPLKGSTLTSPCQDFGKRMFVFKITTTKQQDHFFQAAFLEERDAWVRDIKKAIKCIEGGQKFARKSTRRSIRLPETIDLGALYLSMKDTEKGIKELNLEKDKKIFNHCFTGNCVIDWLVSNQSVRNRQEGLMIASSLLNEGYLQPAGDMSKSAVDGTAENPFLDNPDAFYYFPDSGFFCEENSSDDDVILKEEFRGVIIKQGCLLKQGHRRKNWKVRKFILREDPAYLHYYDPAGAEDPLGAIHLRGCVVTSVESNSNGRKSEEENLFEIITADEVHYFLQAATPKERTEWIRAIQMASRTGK
Kindly report the value followed by its unit.

>  <STRUCTURE NOTATION>
CCOC(=O)/C=C/c1c(O)c(OC)cc(NS(=O)(=O)c2cccs2)c1SC

>  <Kd>
300 µM

$$$$

Turning now to a further compound:
Q: Fill in the blank: the reported Kd of CCOC(=O)/C=C/c1cc(NS(=O)(=O)c2cccs2)c2c(c1O)OCO2 is ____.
Ans: 261 µM

* * *

Assay: Cmax in C57BL6 mouse plasma at 250 mg/kg, po dosed via gavage as single administration
Type: ADME, organism-based
Design: dose 250 mg/kg, route oral
READOUT TYPE: Cmax (µM)
Answers are plain numbers, in µM.

Q: Endpoint output: Cmax of Cc1ccc(-c2csc(Cn3nc(CC(=O)O)c4ccccc4c3=O)n2)cc1 . Value?
Ans: 230

* * *

Target: RAC-alpha serine/threonine-protein kinase (Homo sapiens, UniProt P31749)
Sequence (P31749 whole entry): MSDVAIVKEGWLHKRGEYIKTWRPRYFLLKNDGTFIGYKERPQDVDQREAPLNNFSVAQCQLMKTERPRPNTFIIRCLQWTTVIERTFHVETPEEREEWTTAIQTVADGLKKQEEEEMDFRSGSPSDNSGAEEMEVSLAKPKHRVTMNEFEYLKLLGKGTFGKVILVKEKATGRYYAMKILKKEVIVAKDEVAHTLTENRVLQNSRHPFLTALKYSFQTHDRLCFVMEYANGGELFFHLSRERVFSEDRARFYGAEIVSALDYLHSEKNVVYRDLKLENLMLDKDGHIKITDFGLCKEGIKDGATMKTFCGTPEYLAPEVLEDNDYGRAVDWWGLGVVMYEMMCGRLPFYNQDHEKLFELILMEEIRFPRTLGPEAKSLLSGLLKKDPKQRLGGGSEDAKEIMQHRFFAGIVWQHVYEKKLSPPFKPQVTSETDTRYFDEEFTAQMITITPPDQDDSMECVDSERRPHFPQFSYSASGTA
Test: Binding affinity to AKT PH-domain (unknown origin) at 0.01 to 50 uM by SPR spectroscopy
Calls of active or inactive are those of the source. The rule behind the calls is not given here.
Give your call using only these classes: Y for active, N for inactive

Sample answers from the record:
>  <STRUCTURE NOTATION>
COc1ccc(OC)c(-c2cc(C(=O)O)c3nc(C)[nH]c3n2)c1

>  <CLASS ASSIGNMENT>
Y

$$$$
>  <STRUCTURE NOTATION>
O=C(O)COc1cc(OCC(=O)O)c2c3c(c(=O)oc2c1)CCCC3

>  <CLASS ASSIGNMENT>
Y

$$$$

Q: Recorded test call requested for O=C(O)CCc1ccc(-c2ccc(Br)cc2)n1CCC(=O)O
Ans: Y

Q: Would you mind telling me which call this test gave CC(=O)Nc1cccc(-n2nnc(SCC(=O)c3cc(-c4ccccc4)no3)n2)c1 ?
Ans: N

Q: Hi, sorry to bother you, what did the test record for O=C(O)CSc1cc(NS(=O)(=O)c2cccs2)c2ccccc2c1O ?
Ans: Y

Q: Identify the outcome logged in this assay for the compound shown: Nc1cccc(-c2cc(C(=O)O)c3cc(Cl)ccc3n2)c1
Ans: Y

Q: Hey, what did the test say about Cc1c(Cl)ccc2c(C(=O)O)cc(-c3cccnc3)nc12 ?
Ans: Y
